Listing of recorded pIC50 by entry.
Target: human MRGPRD (Homo sapiens)
Sequence (Q8TDS7 whole entry): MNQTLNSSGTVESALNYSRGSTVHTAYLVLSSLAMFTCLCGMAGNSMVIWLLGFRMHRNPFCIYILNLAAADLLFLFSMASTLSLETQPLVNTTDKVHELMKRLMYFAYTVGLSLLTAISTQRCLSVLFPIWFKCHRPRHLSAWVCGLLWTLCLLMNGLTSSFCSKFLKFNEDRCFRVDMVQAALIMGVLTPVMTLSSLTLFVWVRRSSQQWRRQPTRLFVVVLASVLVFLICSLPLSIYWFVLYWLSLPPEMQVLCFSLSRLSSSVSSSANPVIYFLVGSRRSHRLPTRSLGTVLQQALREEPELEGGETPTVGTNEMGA
Test: MRGPRD antagonist activity, IP-One HTRF assay in CHO cells stably expressing human MRGPRD (versus 100 μM β-Alanine agonist)
pIC50: −log10 of the molar value.
readoutLabel: pIC50

* CCn1cc(CNC(=O)c2nnn(-c3ccc(-c4ccccc4)cc3)c2C2CC2)cn1 | 5.52 to 6.00
* O=C(Nc1ccncc1)c1nnn(-c2cccc(-c3ccc(-c4ccccc4)cc3)c2)c1C1CC1 | 5.52 to 6.00
* CC(C)(C)n1cc(-c2ccc(-n3nnc(C(=O)Nc4ccncc4)c3C3CC3)cc2)cn1 | 6.00 to 6.30
* COCCn1nnc(C(=O)Nc2ccncc2)c1C1CC1 | 5.52 to 6.00
* Cc1ccc(CNC(=O)c2nnn(-c3ccc(-c4c(C)nn(-c5ccccc5)c4C)cc3)c2C2CC2)cn1 | > 7.00
* Cc1cc(NC(=O)c2nnn(-c3ccc(-c4c(C)nn(CC(F)(F)F)c4C)cc3)c2C2CC2)ccn1 | > 7.00
* CS(=O)(=O)Nc1ccc(NC(=O)c2nnn(-c3ccc(-c4ccccc4)cc3)c2C2CC2)cc1 | 6.00 to 6.30
* COc1cc(-n2nnc(C(=O)Nc3ccncc3)c2C2CC2)ccc1C | 5.52 to 6.00

The reported numbers originate from patent US20260001871A1.
